Hi there, I'd appreciate the recorded abundance fitness for every entry that follows.
B1: Far upstream element-binding protein 1, residues 98 to 169; numbered along this chain, Q96AE4 (parent)
chain: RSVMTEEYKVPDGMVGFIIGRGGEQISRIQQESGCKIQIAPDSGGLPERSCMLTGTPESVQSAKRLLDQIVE

Variants of: B1
method.summary: abundance fitness (aPCA) (normalised: wild type 0, dead -1); higher = more abundant; growth selection in yeast, the domain comes from the species named
test.parameters: Homo sapiens
Numbers only.

{"columns": ["chain", "abundance fitness"],
 "data": [
  ["RSVMTEEYKVPDGMVGFIIGRGGEQISRIQQESGCKIQIAPDSGGFPERSCMLTGTPESVQSAKRLLDQIVE [L46F]", -0.004],
  ["RSVMTEEYKVPDGMVGFIIGRGGEQISRIQQESACKIQIAPDSGGLPERSCMLTGTPESVQSAKRLLDQIVE [G34A]", -0.1]
]}

# map each variant to its abundance fitness
1. RSVMTEEYKVPDGMVGFIIGRGGEQISRIQQESGCKIQIAPDSGDLPERSCMLTGTPESVQSAKRLLDQIVE [G45D]
2. RSVMTEEYKVPDGMVGFIIGRKGEQISRIQQESGCKIQIAPDSGGLPERSCMLTGTPESVQSAKRLLDQIVE [G22K]
3. RSVMTEEDKVPDGMVGFIIGRGGEQISRIQQESGCKIQIAPDSGGLPERSCMLTGTPESVQSAKRLLDQIVE [Y8D]
4. RSVMTEEYKVPDGMVGFIIGRGSEQISRIQQESGCKIQIAPDSGGLPERSCMLTGTPESVQSAKRLLDQIVE [G23S]
5. RSVMTEEYKVPDGMVGFIIGRGGEQISRIQQESGCKIQIAPDSGGLPERSCMLTGTPESVQSAKRLDDQIVE [L67D]

Marked response:
1. -0.002
2. -0.001
3. -0.688
4. -0.061
5. -0.412
